# Tgt: Factor Xa (#1063-SE-010, R&D Systems) (UniProt P00742 41-488, limits assumed)
# Sequence (P00742 41-488 limits assumed): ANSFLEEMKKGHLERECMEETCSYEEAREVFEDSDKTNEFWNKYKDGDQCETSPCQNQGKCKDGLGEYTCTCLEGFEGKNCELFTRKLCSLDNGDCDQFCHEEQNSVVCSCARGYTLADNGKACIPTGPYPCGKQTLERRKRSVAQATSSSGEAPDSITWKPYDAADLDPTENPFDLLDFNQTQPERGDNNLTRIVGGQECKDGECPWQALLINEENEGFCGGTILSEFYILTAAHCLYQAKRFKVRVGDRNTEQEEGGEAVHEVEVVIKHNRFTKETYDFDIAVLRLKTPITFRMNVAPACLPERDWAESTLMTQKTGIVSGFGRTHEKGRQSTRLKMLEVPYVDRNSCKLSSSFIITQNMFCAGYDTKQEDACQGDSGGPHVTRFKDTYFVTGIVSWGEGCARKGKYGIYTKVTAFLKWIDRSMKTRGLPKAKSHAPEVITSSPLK
# Assay Procedure: cell-based or functional assay
Non-standard residues stand in square brackets, D forms with d. Primed or numbered codes have the meaning given here. *: point of attachment. X5 = 1‑acetyl‑4‑phenethylpiperidin‑4‑yl carbamate, CC(=O)N1CCC(CCc2ccccc2)(OC(=O)*)CC1; X4 = 1‑(phenylsulfonyl)piperidin‑4‑yl carbamate, O=C(OC1CCN(S(=O)(=O)c2ccccc2)CC1)*; X2 = 1‑(ethylsulfonyl)piperidin‑4‑yl carbamate, CCS(=O)(=O)N1CCC(OC(=O)*)CC1; X3 = 4‑benzylpiperidin‑4‑yl carbamate, O=C(OC1(Cc2ccccc2)CCNCC1)*; X1 = 4‑phenylpiperidin‑4‑yl carbamate, O=C(OC1(c2ccccc2)CCNCC1)*; kbt″ = ketobenzothiazole (C-terminal Arg), c1ccc2sc(*)nc2c1; kbt = C-terminal Arg ketobenzothiazole; Cha = N[C@@H](CC1CCCCC1)C(=O)O
Quantity Measured: Factor Xa IC50

X1-[Cha]-Arg-{kbt″} [4-phenylpiperidin-4-yl Cha-Arg-kbt carbamate (8d)] : 9 µM
X3-Leu-Arg-kbt [4-benzylpiperidin-4-yl Leu-Arg-kbt carbamate (8b)] : 6.5 µM
X4-Leu-Arg-kbt [1-(phenylsulfonyl)piperidin-4-yl Leu-Arg-kbt carbamate (8f)] : > 20 µM
X5-Leu-Arg-kbt [1-acetyl-4-phenethylpiperidin-4-yl Leu-Arg-kbt carbamate (8c)] : 2 µM
X2-Leu-Arg-kbt [1-(ethylsulfonyl)piperidin-4-yl Leu-Arg-kbt carbamate (8h)] : > 20 µM
{phenyl(piperidin-4-yl)methyl carbamate}-Leu-Arg-kbt [phenyl(piperidin-4-yl)methyl Leu-Arg-kbt carbamate (11a)] : > 20 µM
